# viability, T/C values compiled below
system: A375 multi-cell spheroids with HUVEC/MSC, viability; assay: Anticancer human tumor A375 cell line growth inhibition [GQUAD]; details: second compound 0.0316 µM; first compound 0.0316 µM; active compounds read low;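 further: spheroids exposed to compounds for seven days before readout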
measured-property: viability, T/C (%)

>>> assay_value("C=CCn1c(=O)c2cnc(Nc3ccc(N4CCN(C)CC4)cc3)nc2n1-c1cccc(C(C)(C)O)n1 + Cc1[nH]c2ccc(F)cc2c1-c1nc2c3cccnc3c3ncccc3c2[nH]1")
108
>>> assay_value("CC1COCCN1c1cc(C2(S(C)(=N)=O)CC2)nc(-c2ccnc3[nH]ccc23)n1 (stereo not given) + Cc1[nH]c2ccc(F)cc2c1-c1nc2c3cccnc3c3ncccc3c2[nH]1")
105
>>> assay_value("CCCS(=O)(=O)Nc1ccc(F)c(C(=O)c2c[nH]c3ncc(-c4ccc(Cl)cc4)cc23)c1F + CN(C)c1ccc(Nc2c3ccc(NC(=O)CCN4CCCC4)cc3nc3cc(NC(=O)CCN4CCCC4)ccc23)cc1")
40.3
>>> assay_value("C=CC(=O)N1CCN(c2nc(=O)n(-c3c(C)ccnc3C(C)C)c3nc(-c4c(O)cccc4F)c(F)cc23)C(C)C1 (stereo not given) + Cc1cnc(CNC(=O)c2c(=O)c3ccc(N4CCCN(C)CC4)nc3n3c2sc2ccccc23)cn1")
94.5
>>> assay_value("COc1cccc2c1C(=O)c1c(O)c3c(c(O)c1C2=O)CC(O)(C(=O)CO)CC3OC1CC(N)C(O)C(C)O1 (stereo not given) + CN(C)c1ccc(Nc2c3ccc(NC(=O)CCN4CCCC4)cc3nc3cc(NC(=O)CCN4CCCC4)ccc23)cc1")
107
>>> assay_value("C#Cc1c(F)ccc2cc(O)cc(-c3ncc4c(N5CC6CCC(C5)N6)nc(OCC56CCCN5CC(F)C6)nc4c3F)c12 (stereo not given) + Cc1[nH]c2ccc(F)cc2c1-c1nc2c3cccnc3c3ncccc3c2[nH]1")
102
>>> assay_value("CC(C)(O)C1CCC(Nc2ccc3ncc(-c4cccc(C(F)(F)F)c4)n3n2)CC1 (stereo not given) + Cc1[nH]c2ccc(F)cc2c1-c1nc2c3cccnc3c3ncccc3c2[nH]1")
99.5
>>> assay_value("COc1cc(C2c3cc4c(cc3C(OC3OC5COC(C)OC5C(O)C3O)C3COC(=O)C23)OCO4)cc(OC)c1O (stereo not given) + CN(C)c1ccc(Nc2c3ccc(NC(=O)CCN4CCCC4)cc3nc3cc(NC(=O)CCN4CCCC4)ccc23)cc1")
99
>>> assay_value("CC(C)(O)C1CCC(Nc2ccc3ncc(-c4cccc(C(F)(F)F)c4)n3n2)CC1 (stereo not given) + Cc1cnc(CNC(=O)c2c(=O)c3ccc(N4CCCN(C)CC4)nc3n3c2sc2ccccc23)cn1")
104
>>> assay_value("C#Cc1c(F)ccc2cc(O)cc(-c3ncc4c(N5CC6CCC(C5)N6)nc(OCC56CCCN5CC(F)C6)nc4c3F)c12 (stereo not given) + Cc1cnc(CNC(=O)c2c(=O)c3ccc(N4CCCN(C)CC4)nc3n3c2sc2ccccc23)cn1")
106
